Value source: ChEMBL document CHEMBL1152893

List of Ratio CC50/IC50 values.
- ASSAY DETAILS: Selectivity index, ratio of CC50 for MDCK cells to IC50 for Giardia intestinalis IMSS:0696 trophozoites
- Type: functional
Just the number, please.

Below are worked cases with known answers.
Cc1nc([N+](=O)[O-])cn1S(=O)(=O)c1ccc([N+](=O)[O-])cc1 = 82
Cc1nc([N+](=O)[O-])cn1CC(=O)Nc1ccc(C#N)cc1 = 60

Report Ratio CC50/IC50 for "Cc1nc([N+](=O)[O-])cn1CC(=O)NCc1ccccc1" please.
4

Record request: Ratio CC50/IC50 value, item "CC(=O)Nc1ccc(S(=O)(=O)n2cc([N+](=O)[O-])nc2C)cc1"
51

---

- ASSAY DETAILS: Cytotoxicity against MDCK cells after 72 hrs by MTT assay
- Assay type: cell-based, Canis lupus familiaris
- MEASUREMENT SETUP: dog
Mark class 1 only when CC50 at 72 h stays strictly below 300 µM. Values equal to the cut-off are class 0.

Cc1nc([N+](=O)[O-])cn1CC(=O)Nc1ccc(Cl)cc1 = class 0
Cc1nc([N+](=O)[O-])cn1S(=O)(=O)c1ccccc1 = class 0
Cc1ncc([N+](=O)[O-])n1CCO = class 1
COc1ccc(S(=O)(=O)n2cc([N+](=O)[O-])nc2C)cc1 = class 0
Cc1nc([N+](=O)[O-])cn1CC(=O)Nc1ccc(C#N)cc1 = class 0

Now take the following compound into account.
Please let me know if "Cc1nc([N+](=O)[O-])cn1CC(=O)Nc1ccc(F)cc1" shows CC50 at 72 h below 300 µM.
class 0

---

- ASSAY DETAILS: Selectivity index, ratio of CC50 for MDCK cells to IC50 for Giardia intestinalis IMSS:0696 trophozoites
- Type: functional
Short version: Ratio CC50/IC50 at least 40 is 1, less is 0.

Use these answered entries as a reference point.
Cc1nc([N+](=O)[O-])cn1S(=O)(=O)c1ccc(F)cc1 = 1
Cc1nc([N+](=O)[O-])cn1CC(=O)Nc1cccc(C(F)(F)F)c1 = 0
Cc1nc([N+](=O)[O-])cn1CC(=O)Nc1c(Cl)cccc1Cl = 0
Cc1nc([N+](=O)[O-])cn1S(=O)(=O)c1ccc(Cl)cc1 = 0
Cc1nc([N+](=O)[O-])cn1CC(=O)Nc1ccc([N+](=O)[O-])cc1 = 1

Decide: is the reported value of Ratio CC50/IC50 for "Cc1nc([N+](=O)[O-])cn1CC(=O)Nc1ccccc1" equal to or greater than 40?
0

---

Recorded CC50 at 72 h values for a group of molecules are listed next.
- ASSAY DETAILS: Cytotoxicity against MDCK cells after 72 hrs by MTT assay
- Type: cell-based, Canis lupus familiaris
- MEASUREMENT SETUP: dog
Quick note: give the figure in µM, leave out the unit.

Cc1nc([N+](=O)[O-])cn1CC(=O)Nc1cccc(C(F)(F)F)c1 = 435
Cc1nc([N+](=O)[O-])cn1S(=O)(=O)c1ccc(F)cc1 = 813
Cc1nc([N+](=O)[O-])cn1S(=O)(=O)c1ccc([N+](=O)[O-])cc1 = 611
Cc1nc([N+](=O)[O-])cn1S(=O)(=O)c1ccc(Cl)cc1 = 578

Consider now this further molecule.
Given the entry "Cc1nc([N+](=O)[O-])cn1CC(=O)Nc1ccc([N+](=O)[O-])cc1" , report its measured CC50 at 72 h.
798
